Quick list: MIC90 per entry.
# Test system: Streptococcus pneumoniae
# protocol summary: Antibacterial activity against Streptococcus pneumoniae ATCC 49619 isolated from respiratory tract infected patients after 20 to 24 hrs by broth microdilution method
# Assay type: functional

Here are 6 molecules together with their reported answers.
| smiles input | MIC90 |
| --- | --- |
| CC[C@H]1OC(=O)[C@H](C)C(=O)[C@H](C)[C@@H](O[C@@H]2O[C@H](C)C[C@H](N(C)C)[C@H]2O)[C@](C)(OC)C[C@@H](C)C(=O)[C@H](C)[C@H]2N(CCCCn3cnc(-c4cccnc4)c3)C(=O)O[C@]12C | 0.5 µg/mL |
| CC[C@H]1OC(=O)[C@H](C)[C@@H](O[C@H]2C[C@@](C)(OC)[C@@H](O)[C@H](C)O2)[C@H](C)[C@@H](O[C@@H]2O[C@H](C)C[C@H](N(C)C)[C@H]2O)[C@](C)(O)C[C@@H](C)CN(C)[C@H](C)[C@@H](O)[C@]1(C)O | > 16 µg/mL |
| C[C@@H](O)[C@H]1C(=O)N2C(C(=O)O)=C([C@H]3CCCO3)S[C@H]12 | 0.5 µg/mL |
| C[C@H]1COc2c(N3CCN(C)CC3)c(F)cc3c(=O)c(C(=O)O)cn1c23.C[C@H]1COc2c(N3CCN(C)CC3)c(F)cc3c(=O)c(C(=O)O)cn1c23.O | 1 µg/mL |
| CO/N=C(\C(=O)N[C@@H]1C(=O)N2C(C(=O)O)=C(COC(N)=O)CS[C@H]12)c1ccco1 | 8 µg/mL |
| C[C@@H](O)[C@H]1C(=O)N2C(C(=O)O)=C(S[C@@H]3CN[C@H](C(=O)N(C)C)C3)[C@H](C)[C@H]12 | 0.5 µg/mL |

Next molecule, please.
Summary line: C=CC1=C(C(=O)O)N2C(=O)[C@@H](NC(=O)/C(=N\O)c3csc(N)n3)[C@H]2SC1 , Streptococcus pneumoniae, reported MIC90 = 8 µg/mL

* * *

# Tested on: Haemophilus influenzae
# protocol summary: Antibacterial activity against beta lactamase-negative Haemophilus influenzae […] isolated from respiratory tract infected patients assessed as susceptible isolates after 20 to 24 hrs by broth microdilution method
# Assay type: functional
endpoint: Activity (%)
Give the value in % but do not write % after it.

| smiles input | value |
| --- | --- |
| CC[C@H]1OC(=O)[C@H](C)[C@@H](O[C@H]2C[C@@](C)(OC)[C@@H](O)[C@H](C)O2)[C@H](C)[C@@H](O[C@@H]2O[C@H](C)C[C@H](N(C)C)[C@H]2O)[C@](C)(O)C[C@@H](C)CN(C)[C@H](C)[C@@H](O)[C@]1(C)O | 98.9 |

Documented Activity of CC[C@H]1OC(=O)[C@H](C)C(=O)[C@H](C)[C@@H](O[C@@H]2O[C@H](C)C[C@H](N(C)C)[C@H]2O)[C@](C)(OC)C[C@@H](C)C(=O)[C@H](C)[C@H]2N(CCCCn3cnc(-c4cccnc4)c3)C(=O)O[C@]12C : 96.1

Documented Activity of C[C@@H](O)[C@H]1C(=O)N2C(C(=O)O)=C(S[C@@H]3CN[C@H](C(=O)N(C)C)C3)[C@H](C)[C@H]12 : 99.6

Documented Activity of C=CC1=C(C(=O)O)N2C(=O)[C@@H](NC(=O)/C(=N\O)c3csc(N)n3)[C@H]2SC1 : 95

Documented Activity of C[C@H]1COc2c(N3CCN(C)CC3)c(F)cc3c(=O)c(C(=O)O)cn1c23.C[C@H]1COc2c(N3CCN(C)CC3)c(F)cc3c(=O)c(C(=O)O)cn1c23.O : 99.7

Documented Activity of CO/N=C(\C(=O)N[C@@H]1C(=O)N2C(C(=O)O)=C(COC(N)=O)CS[C@H]12)c1ccco1 : 98
